Target or system Sterol O-acyltransferase 1 (Rattus norvegicus): recorded IC50 listed per item.
Report the value in µM with no unit label.

CC(C)(C)c1cccc(C(C)(C)C)c1OC(=O)NS(=O)(=O)Oc1c(C(C)(C)C)cccc1C(C)(C)C: 30
CC(C)c1cccc(C(C)C)c1OC(=O)NS(=O)(=O)Oc1c(C(C)(C)C)cccc1C(C)(C)C: 50
CC(C)c1cc(C(C)C)c(OS(=O)(=O)NC(=O)Oc2c(C(C)C)cccc2C(C)C)c(C(C)C)c1: 29

Q. Entry CC(C)c1cc(Br)cc(C(C)C)c1OC(=O)NS(=O)(=O)Oc1c(C(C)C)cccc1C(C)C , system Sterol O-acyltransferase 1 (Rattus norvegicus): what IC50 was measured?
A. 31

* * *

# reported Delta HDL; entries follow
Target: Sterol O-acyltransferase 1 (Rattus norvegicus)
Sequence (whole entry): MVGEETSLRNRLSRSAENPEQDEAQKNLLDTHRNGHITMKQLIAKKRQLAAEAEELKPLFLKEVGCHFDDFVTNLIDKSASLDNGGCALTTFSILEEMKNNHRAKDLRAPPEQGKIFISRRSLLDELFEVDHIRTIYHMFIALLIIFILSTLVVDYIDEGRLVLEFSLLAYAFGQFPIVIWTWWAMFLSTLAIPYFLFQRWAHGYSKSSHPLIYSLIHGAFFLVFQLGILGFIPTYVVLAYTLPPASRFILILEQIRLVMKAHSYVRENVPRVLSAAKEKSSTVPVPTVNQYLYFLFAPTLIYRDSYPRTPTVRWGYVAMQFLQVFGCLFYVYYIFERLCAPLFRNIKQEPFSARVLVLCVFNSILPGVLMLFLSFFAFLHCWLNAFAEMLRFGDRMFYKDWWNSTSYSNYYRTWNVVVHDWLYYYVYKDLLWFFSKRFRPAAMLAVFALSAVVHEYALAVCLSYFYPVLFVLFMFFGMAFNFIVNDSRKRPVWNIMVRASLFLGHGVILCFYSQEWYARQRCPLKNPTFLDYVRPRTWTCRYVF
Assay: Chronic in vivo activity was measured by the concentration of high density lipoproteins (HDL) in cholesterol fed rats
Format: functional, organism-based
Quick reminder: number only, in %, skip the unit.

For orientation, consider the following solved cases.
CCCCCCCCCCCCCCN(C)S(=O)(=O)NC(=O)Nc1c(C(C)C)cccc1C(C)C: 19
CC(C)c1cccc(C(C)C)c1OS(=O)(=O)NC(=O)Oc1c(C(C)(C)C)cccc1C(C)(C)C: 25
CC(C)c1cc(F)cc(C(C)C)c1OC(=O)NS(=O)(=O)Oc1c(C(C)C)cccc1C(C)C: 143
CCCCCN(CCCCC)S(=O)(=O)NC(=O)Oc1c(C(C)C)cccc1C(C)C: 166
CCCCCCN(CCCCCC)S(=O)(=O)NC(=O)Oc1c(C(C)C)cccc1C(C)C: 144

Q. Entry CC(C)c1cc(C(C)(C)C)cc(C(C)C)c1OC(=O)NS(=O)(=O)Oc1c(C(C)C)cccc1C(C)C has what Delta HDL?
A. 177

Q. Subsequent entry: CCCCCCN(CCCCCC)S(=O)(=O)NC(=O)Nc1c(C(C)C)cccc1C(C)C
A. 207

Q. # iterate: CC(C)c1cc(C(C)C)c(OC(=O)NS(=O)(=O)Oc2c(C(C)C)cccc2C(C)C)c(C(C)C)c1
A. 153

* * *

# pIC50 measurements, system: Sterol O-acyltransferase 1 (Rattus norvegicus, UniProt O70536)
Keep it numeric: pIC50 is minus log10 of the concentration in mol/L.

Illustrative cases are given below, each with its answer.
CCN(CC)S(=O)(=O)NC(=O)Nc1c(C(C)C)cccc1C(C)C: 5.60
CC(C)c1cccc(C(C)C)c1OC(=O)NS(=O)(=O)N1CCCC1: 4.28
CC(C)c1cccc(C(C)C)c1NC(=O)NS(=O)(=O)NC1c2ccccc2-c2ccccc21: 4.60
CCCCCCCCCCCCOC(=O)NS(=O)(=O)Oc1c(C(C)C)cccc1C(C)C: 4.89
CC(C)c1cc(Cl)cc(C(C)C)c1OC(=O)NS(=O)(=O)Oc1c(C(C)C)cccc1C(C)C: 4.38
CC(C)(C)c1cccc(C(C)(C)C)c1OC(=O)NS(=O)(=O)Nc1ccccc1: 4.72

Q. What measured pIC50 goes with Cc1cc(C(C)(C)C)c(OC(=O)NS(=O)(=O)NCC(c2ccccc2)c2ccccc2)c(C(C)(C)C)c1 ?
A. 4.61

Q. Cool, now CC(=O)c1cc(C(C)C)c(OC(=O)NS(=O)(=O)Oc2c(C(C)C)cccc2C(C)C)c(C(C)C)c1
A. 4.38

Q. Would you mind doing CC(C)c1cccc(C(C)C)c1OS(=O)(=O)NC(=O)Oc1c(C(C)C)c(C(C)C)c(F)c(C(C)C)c1C(C)C as well?
A. 4.89

* * *

tested on: Rattus norvegicus; assay: Acute in vivo activity measured by total plasma cholesterol concentration levels (TC) at 30 mg/kg dose; assay type: functional
Quick list: Delta TC per entry.
Number in %, nothing else.

Please review the entries below; each comes with its answer.
COc1cccc(OC)c1OC(=O)[N-]S(=O)(=O)Oc1c(C(C)C)cccc1C(C)C.[Na+]: -49
CC(C)c1cc(O)cc(C(C)C)c1OC(=O)NS(=O)(=O)Oc1c(C(C)C)cccc1C(C)C: -55
CCCCCCC(C)OC(=O)NS(=O)(=O)Oc1c(C(C)C)cccc1C(C)C (stereo unspecified): -32

Q. Record lookup: for Rattus norvegicus, what Delta TC belongs to CC(C)c1cccc(C(C)C)c1OC(=O)N(C)S(=O)(=O)Oc1c(C(C)C)cccc1C(C)C ?
A. -64

Q. Continue with CC(C)c1cccc(C(C)C)c1NC(=O)NS(=O)(=O)N(C(C)C)C(C)(C)C
A. -17

Q. Next record, please: CC(C)c1cccc(C(C)C)c1OS(=O)(=O)NC(=O)Oc1ccc(Cl)cc1
A. -8

Q. What do you get for CC(C)c1cccc(C(C)C)c1OS(=O)(=O)NC(=O)Oc1c(C(C)C)c(C(C)C)c(F)c(C(C)C)c1C(C)C ?
A. -71

Q. Input CC(C)c1cc(C(C)(C)C)cc(C(C)C)c1OC(=O)NS(=O)(=O)Oc1c(C(C)C)cccc1C(C)C
A. -58

* * *

Target: UniProt O70536
Sequence (O70536 whole entry): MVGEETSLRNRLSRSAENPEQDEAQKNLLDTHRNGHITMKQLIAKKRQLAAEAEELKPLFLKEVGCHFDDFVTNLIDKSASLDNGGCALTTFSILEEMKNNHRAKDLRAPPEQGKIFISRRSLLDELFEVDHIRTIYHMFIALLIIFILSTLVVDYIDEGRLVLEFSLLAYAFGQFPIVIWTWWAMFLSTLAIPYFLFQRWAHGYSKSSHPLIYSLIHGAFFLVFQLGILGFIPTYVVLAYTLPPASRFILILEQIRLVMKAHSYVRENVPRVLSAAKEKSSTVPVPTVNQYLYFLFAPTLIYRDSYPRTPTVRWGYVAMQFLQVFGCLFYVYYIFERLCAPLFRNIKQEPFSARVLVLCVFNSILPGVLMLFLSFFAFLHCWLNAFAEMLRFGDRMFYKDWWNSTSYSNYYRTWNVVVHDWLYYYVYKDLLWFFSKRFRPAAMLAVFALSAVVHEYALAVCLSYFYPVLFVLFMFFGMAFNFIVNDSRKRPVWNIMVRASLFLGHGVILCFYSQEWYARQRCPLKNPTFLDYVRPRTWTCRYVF
propertyMeasured: log10 of IC50 (log10 of the value in µM)
Would you kindly interpret these values as log10 of IC50 expressed in µM?

CCCCN(CC)S(=O)(=O)NC(=O)Nc1c(C(C)C)cccc1C(C)C: 0.08
CCCCN(CCCC)S(=O)(=O)NC(=O)Oc1c(C(C)(C)C)cc(C)cc1C(C)(C)C: 0.51
CC(C)c1cccc(C(C)C)c1OS(=O)(=O)NC(=O)Oc1c(C(C)(C)C)cccc1C(C)(C)C: 1.08
CCCCCCCCN(CCCCCCCC)S(=O)(=O)NC(=O)Oc1c(C(C)(C)C)cc(C)cc1C(C)(C)C: 0.43
CC(C)(C)c1cccc(C(C)(C)C)c1OC(=O)NS(=O)(=O)N(Cc1ccccc1)Cc1ccccc1: 1.04
Cc1cc(C(C)(C)C)c(OC(=O)NS(=O)(=O)N(C)CCc2ccccn2)c(C(C)(C)C)c1: 1.49

Q. Return reported log10 of IC50; argument: CC(C)c1cccc(C(C)C)c1NC(=O)NS(=O)(=O)N1CCCCC1
A. 1.23

* * *

Here the recorded Delta TC is given for each entry.
target: Sterol O-acyltransferase 1 (Rattus norvegicus) (UniProt O70536); assay: Acute in vivo activity was measured by the total plasma cholesterol concentration levels(TC) at dose 50 mg/kg; format: functional, organism-based; set-up: dose 50 mg/kg
The reply should contain only the number, in %.

Completed entries (count: 3):
CC(C)c1cccc(C(C)C)c1OC(=O)NS(=O)(=O)NC(c1ccccc1)c1ccccc1: 46
Cc1cc(C(C)(C)C)c(OC(=O)NS(=O)(=O)Nc2ccccc2)c(C(C)(C)C)c1: -33
CC(C)c1cccc(C(C)C)c1NC(=O)NS(=O)(=O)NC(c1ccccc1)c1ccccc1: -14

# next molecule below
Q. Any idea what its Delta TC is? The molecule is CC(C)c1cccc(C(C)C)c1OC(=O)NS(=O)(=O)Nc1ccccc1
A. -55
